molecular target: recombinant SARS-CoV-2 Main protease (Mpro) (Severe acute respiratory syndrome coronavirus 2 (2019-nCoV) (SARS-CoV-2)); assay: Cov Mpro Biochemical IC50 Assay; conditions: recombinant SARS-CoV-2 Mpro 7.5 nM, fluorogenic peptide substrate 40 μM; read-out: MPro IC50
pIC50: −log10 of the molar value.
Item-by-item account of pIC50

These solved cases illustrate the format of a correct answer.
Cn1ncc2cncc(-n3c(=O)c4sc(-c5ccccc5C#N)cc4n(CCC#N)c3=O)c21 (single isomer, unassigned) [Example 962] : < 6.00
COc1cc(-c2cc3[nH]c(=O)n(-c4cncc5c4c(C)nn5CC(F)(F)F)c(=O)c3s2)c(Cl)cc1F [Example 741] : < 6.00

# next compound below
Query: Entry COc1ccc(Cl)c(-c2cc3c(s2)c(=O)n(-c2cncc4ccccc24)c(=O)n3CC#N)c1 (atropisomer, axis not shown) [Example 702] needs its pIC50 filled in; supply it.
Response: > 8.53
